The entries below are paired with their reported switch fluorescence ratio.
System: ATP;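 further: ATP exposure 15 min at 22 °C before imaging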
assay_details: switch fluorescence ratio, 500 uM ATP over buffer (Cy3 cluster intensity, sum of 5 cycles each) (fold (ratio)); higher = stronger signal-on switching upon ATP binding; sequences stand for … in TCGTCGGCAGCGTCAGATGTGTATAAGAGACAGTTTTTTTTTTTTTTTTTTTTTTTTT…TC
test_context: aptamer strand: ATP DNA aptamer (quencher-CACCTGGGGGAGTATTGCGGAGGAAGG + anchor), 100 nM annealed; ATP concentration: 500 uM

- biosequence: "GGGATATAAT"
  switch fluorescence ratio: 1.02
- biosequence: "TTTTAGTTTG"
  switch fluorescence ratio: 1.01
- biosequence: "TGGTATTGCA"
  switch fluorescence ratio: 0.999
- biosequence: "GATTGGGGGA"
  switch fluorescence ratio: 0.984
- biosequence: "ATTGACTCAG"
  switch fluorescence ratio: 1.01
- biosequence: "AGCAAGGCGT"
  switch fluorescence ratio: 1.03
- biosequence: "TCGAGGGGAA"
  switch fluorescence ratio: 1.13
- biosequence: "GCCGGGGCAG"
  switch fluorescence ratio: 1.01
- biosequence: "GGCGCAACCG"
  switch fluorescence ratio: 1.09
- biosequence: "AGCAGAAGGA"
  switch fluorescence ratio: 1.02

* * *

The entries below are paired with their reported switch fluorescence ratio.
Test system: ATP;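 further: ATP exposure 15 min at 22 °C before imaging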
assay_details: switch fluorescence ratio, 500 uM ATP over buffer (Cy3 cluster intensity, sum of 5 cycles each) (fold (ratio)); higher = stronger signal-on switching upon ATP binding; sequences stand for … in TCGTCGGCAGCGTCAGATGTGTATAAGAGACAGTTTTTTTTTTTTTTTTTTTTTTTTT…TC
test_context: aptamer strand: ATP DNA aptamer (quencher-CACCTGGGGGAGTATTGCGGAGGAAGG + anchor), 100 nM annealed; ATP concentration: 500 uM

- biosequence: "AGGGAAAGGT"
  switch fluorescence ratio: 1.06
- biosequence: "GAGGGAATTA"
  switch fluorescence ratio: 1.06
- biosequence: "GGGTGGCATT"
  switch fluorescence ratio: 0.957
- biosequence: "AAAATTATC"
  switch fluorescence ratio: 0.997
- biosequence: "AAGGACGTGG"
  switch fluorescence ratio: 0.98
- biosequence: "TGTGGTATAT"
  switch fluorescence ratio: 0.993
- biosequence: "GGGGGGAGGA"
  switch fluorescence ratio: 1.01
- biosequence: "TGATGGTAGG"
  switch fluorescence ratio: 0.981
- biosequence: "TTTTGTGGGG"
  switch fluorescence ratio: 0.999
- biosequence: "TTTAGCGCAT"
  switch fluorescence ratio: 1.04
- biosequence: "GGATTATGGC"
  switch fluorescence ratio: 0.943
- biosequence: "GAAAAAATGG"
  switch fluorescence ratio: 1.15
- biosequence: "AAAGTGCTCT"
  switch fluorescence ratio: 0.981
- biosequence: "TTTGGGTTTG"
  switch fluorescence ratio: 1.01
- biosequence: "TTTCCTGTAT"
  switch fluorescence ratio: 0.972
- biosequence: "ATTAGTGGCA"
  switch fluorescence ratio: 0.982
- biosequence: "ATTATTGGTC"
  switch fluorescence ratio: 0.99
- biosequence: "GCGAGAGCTA"
  switch fluorescence ratio: 0.96
- biosequence: "GATCGGAATA"
  switch fluorescence ratio: 1.87
- biosequence: "AGGTTAATCT"
  switch fluorescence ratio: 1.01
- biosequence: "ATGTGCAGGG"
  switch fluorescence ratio: 1.03
- biosequence: "ATATTATGGA"
  switch fluorescence ratio: 1
- biosequence: "GGGCCAAGGA"
  switch fluorescence ratio: 1.01
- biosequence: "TTCAGGGATG"
  switch fluorescence ratio: 0.982
- biosequence: "TTCTATGTTA"
  switch fluorescence ratio: 0.997
- biosequence: "TATGGCGGGT"
  switch fluorescence ratio: 1
- biosequence: "TACTTCTCCA"
  switch fluorescence ratio: 1.04
- biosequence: "AAAGATATCT"
  switch fluorescence ratio: 0.979
- biosequence: "TAGATCGTTG"
  switch fluorescence ratio: 0.977
- biosequence: "GCTCCAGGTA"
  switch fluorescence ratio: 1.58
- biosequence: "GCGCGGGGGA"
  switch fluorescence ratio: 1.02
- biosequence: "ACTGGGTAAA"
  switch fluorescence ratio: 1
- biosequence: "AAGTTGGGCT"
  switch fluorescence ratio: 1.01
- biosequence: "GGTCTATCGT"
  switch fluorescence ratio: 1
- biosequence: "TCTAGGGGTG"
  switch fluorescence ratio: 1.03
- biosequence: "TGGGTTCGAG"
  switch fluorescence ratio: 1.01
- biosequence: "TACAGGCTCG"
  switch fluorescence ratio: 1.01
- biosequence: "TGGTGATGGT"
  switch fluorescence ratio: 1.03
- biosequence: "AATTAATGCA"
  switch fluorescence ratio: 1.01
- biosequence: "TAAACTGGGA"
  switch fluorescence ratio: 1
- biosequence: "AGGGATACCT"
  switch fluorescence ratio: 1.04
- biosequence: "TCAATAGACC"
  switch fluorescence ratio: 1.05
- biosequence: "AAAGTCTAGC"
  switch fluorescence ratio: 1.01
- biosequence: "TCAAGTATGT"
  switch fluorescence ratio: 1.01
- biosequence: "TTGGAAACAG"
  switch fluorescence ratio: 1
- biosequence: "ATATCGACGT"
  switch fluorescence ratio: 1
- biosequence: "CTATCCGTGC"
  switch fluorescence ratio: 1.29
- biosequence: "GGTGTATAAA"
  switch fluorescence ratio: 0.967
- biosequence: "TGCTCTGCTA"
  switch fluorescence ratio: 1.68
- biosequence: "GTTTTGGAGC"
  switch fluorescence ratio: 1.03
- biosequence: "AGGGCTGGGT"
  switch fluorescence ratio: 1
- biosequence: "AGAAAGCGAC"
  switch fluorescence ratio: 1.17
- biosequence: "ATCGGTAGGT"
  switch fluorescence ratio: 0.99
- biosequence: "TAAGAGTTC"
  switch fluorescence ratio: 0.99
- biosequence: "GGGATAAGAA"
  switch fluorescence ratio: 0.992
- biosequence: "CGGATATGGA"
  switch fluorescence ratio: 0.988
- biosequence: "TTATTTGGGT"
  switch fluorescence ratio: 1
- biosequence: "TTGTATATGT"
  switch fluorescence ratio: 1.03
- biosequence: "AAGGTCTTTA"
  switch fluorescence ratio: 1
- biosequence: "AAGGGGAGGT"
  switch fluorescence ratio: 1.02
- biosequence: "GCGGACCGGG"
  switch fluorescence ratio: 1.04
- biosequence: "CTCTAATATC"
  switch fluorescence ratio: 1.47
- biosequence: "AAAATGGGGC"
  switch fluorescence ratio: 1
- biosequence: "GGGTAGCAGG"
  switch fluorescence ratio: 1.04
- biosequence: "AATTTTAGGT"
  switch fluorescence ratio: 0.959
- biosequence: "GCGTCCCGTG"
  switch fluorescence ratio: 0.985
- biosequence: "TGGTACGGGT"
  switch fluorescence ratio: 1.03
- biosequence: "TAGAGTGGGG"
  switch fluorescence ratio: 0.994
- biosequence: "CCAAAAAGTG"
  switch fluorescence ratio: 1.03
- biosequence: "ATTGGCTTTA"
  switch fluorescence ratio: 1
- biosequence: "TATGGGGTAG"
  switch fluorescence ratio: 1
- biosequence: "TACGAGCGAA"
  switch fluorescence ratio: 1.34
- biosequence: "CTGGGGGGGG"
  switch fluorescence ratio: 1
- biosequence: "AGTTTGATGA"
  switch fluorescence ratio: 0.989
- biosequence: "TATGCAGCG"
  switch fluorescence ratio: 1
- biosequence: "CGGAGACCGT"
  switch fluorescence ratio: 1
- biosequence: "ATCATGCTGT"
  switch fluorescence ratio: 0.998
- biosequence: "AGGTTAGTTT"
  switch fluorescence ratio: 0.985
- biosequence: "TTTAATGTTT"
  switch fluorescence ratio: 1
- biosequence: "CGTTAAAATA"
  switch fluorescence ratio: 1.01
- biosequence: "ATTTATATCA"
  switch fluorescence ratio: 1.01
- biosequence: "TGATGTAGCA"
  switch fluorescence ratio: 0.979
- biosequence: "TGTGTTTTAG"
  switch fluorescence ratio: 0.976
- biosequence: "TCGCCCGAGC"
  switch fluorescence ratio: 1.09
- biosequence: "ACGGGGTTGT"
  switch fluorescence ratio: 1
- biosequence: "AATCGCACCA"
  switch fluorescence ratio: 1.11

* * *

Test system: ATP;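 further: ATP exposure 15 min at 22 °C before imaging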
assay_details: switch fluorescence ratio, 500 uM ATP over buffer (Cy3 cluster intensity, sum of 5 cycles each) (fold (ratio)); higher = stronger signal-on switching upon ATP binding; sequences stand for … in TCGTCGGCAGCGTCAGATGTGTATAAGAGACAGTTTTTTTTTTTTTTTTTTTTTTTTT…TC
test_context: aptamer strand: ATP DNA aptamer (quencher-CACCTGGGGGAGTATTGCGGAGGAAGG + anchor), 100 nM annealed; ATP concentration: 500 uM

- biosequence: "AGGGTAATTT"
  switch fluorescence ratio: 1.04
- biosequence: "CTCAGACGGA"
  switch fluorescence ratio: 1
- biosequence: "TTGATCTT"
  switch fluorescence ratio: 1.01
- biosequence: "TGGATTTCGG"
  switch fluorescence ratio: 1.02
- biosequence: "ATGTAAAGTC"
  switch fluorescence ratio: 1.02
- biosequence: "CGGTGGCCGT"
  switch fluorescence ratio: 1.02
- biosequence: "GTCGTGGCGA"
  switch fluorescence ratio: 1.01
- biosequence: "CGCGCAGGGA"
  switch fluorescence ratio: 1.03
- biosequence: "GTATGTGTGC"
  switch fluorescence ratio: 0.96
- biosequence: "TTTTTTCAGC"
  switch fluorescence ratio: 1
- biosequence: "TGTGTACCG"
  switch fluorescence ratio: 1.01
